// provenance: patent US20160159774A1

Here, each record is paired with measured melting point data.

Q: Report melting point for "C=CC(=O)N1CCC[C@@H](Nc2nc(Nc3ccc4c(c3)CN(C(C)(C)C)CC4)ncc2F)C1"
A: 118 to 121 °C

Q: Report melting point for "C=CC(=O)N1CCC[C@@H](Nc2nc(Nc3ccc4c(c3)CN(C)C4=O)ncc2F)C1"
A: 120 to 122 °C

Q: Answer with the recorded melting point for the compound listed here: "C=CC(=O)N1CCC[C@@H](Nc2nc(Nc3ccc4c(c3)CCN(C)CC4)ncc2F)C1"
A: 102 to 104 °C

Q: Output melting point of "C=CC(=O)N1CCC[C@@H](Nc2nc(Nc3ccc4c(c3)CN(CC3COC3)CCC4)ncc2F)C1"
A: 103 to 105 °C
